# Study system: Gal-1 (Homo sapiens, UniProt P09382)
# Construct: made in house; host or cells: E. coli BL21(DE3)
# Sequence (P09382 whole entry): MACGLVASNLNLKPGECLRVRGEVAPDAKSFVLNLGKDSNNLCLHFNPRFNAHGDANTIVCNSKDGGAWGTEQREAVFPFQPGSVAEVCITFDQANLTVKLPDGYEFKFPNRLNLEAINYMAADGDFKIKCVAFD
# Assay protocol: Pull-down assay with immobilized protein and LSM libraries
# Format: binding
# Experimental setup: H14 library; 1:1 binding assumed; read-out: Surface mapping KD (apparent)
# Description: Pull-down assays with immobilized test proteins and foldameric LSM libraries were carried out. Proteins were equilibrated with LSM probes, and equilibrium bound fractions (FB) were determined from the unbound fractions measured by HPLC-MS methods. Hits were corrected with background binding of the resin. […] MS data analysis. […] Using these processing setups, all raw data files were reprocessed together and analyzed. […]
Endpoint label: Kd (µM)
Numbers only; they are read as µM.

Example entries begin here.
NC(=O)C[C@@H](CC(=O)N[C@H]1CCCC[C@@H]1C(N)=O)NC(=O)[C@H]1CCCC[C@@H]1NC(=O)[C@H]1CCCC[C@@H]1NC(=O)C[C@H](CO)NC(=O)[C@H]1CCCC[C@@H]1N = 310
CC(C)[C@@H](CC(=O)N[C@H]1CCCC[C@@H]1C(N)=O)NC(=O)[C@H]1CCCC[C@@H]1NC(=O)[C@H]1CCCC[C@@H]1NC(=O)C[C@@H](NC(=O)[C@H]1CCCC[C@@H]1N)[C@@H](C)O = 399

Turning now to a further molecule:
-- ask Give me measured Kd, please, for this molecule: `NC(=O)CC[C@@H](CC(=O)N[C@H]1CCCC[C@@H]1C(N)=O)NC(=O)[C@H]1CCCC[C@@H]1NC(=O)[C@H]1CCCC[C@@H]1NC(=O)C[C@H](CO)NC(=O)[C@H]1CCCC[C@@H]1N`
-- reply 275
